Below, each entry is listed with its recorded pEC50.
- TARGET_OR_TEST_SYSTEM: Motilin receptor (Homo sapiens, UniProt O43193)
- Sequence (O43193 whole entry): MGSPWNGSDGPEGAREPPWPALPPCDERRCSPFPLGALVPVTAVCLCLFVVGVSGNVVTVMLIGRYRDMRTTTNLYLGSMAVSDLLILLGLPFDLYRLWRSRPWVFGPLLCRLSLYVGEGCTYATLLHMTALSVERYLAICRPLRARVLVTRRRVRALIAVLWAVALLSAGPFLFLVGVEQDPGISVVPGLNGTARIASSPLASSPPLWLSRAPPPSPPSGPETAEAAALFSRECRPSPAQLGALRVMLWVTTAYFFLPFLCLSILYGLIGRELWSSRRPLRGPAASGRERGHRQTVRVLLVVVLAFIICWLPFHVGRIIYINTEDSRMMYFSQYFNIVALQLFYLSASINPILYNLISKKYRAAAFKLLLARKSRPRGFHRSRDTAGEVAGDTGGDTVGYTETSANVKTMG
- MEASUREMENT_DESCRIPTION: SUPPLEMENTARY: Agonist activity at human recombinant motilin receptor expressed in CHO cells by calcium mobilization-based FLIPR assay. Same assay as CHEMBL942680
pEC50: −log10 of the molar value.
ENDPOINT_NAME: pEC50

>>> df
                                 test_smiles  endpoint_name  recorded_number
 0  C[C@H]1CN(Cc2ccc(N(C)C(=O)c3ccc(Oc4cccc(C#N)c4)nc3)cc2)CCN1          pEC50             8.50
 1  C[C@H]1CN(Cc2ccc(N(C)C(=O)c3ccc(-c4ccc(F)cc4)cc3)cc2)CCN1          pEC50             7.40
 2  C[C@@H]1CN(Cc2ccc(CC(=O)N3CCC(Oc4ccc(F)cc4)CC3)cc2)CCN1          pEC50             7.90
 3  C[C@@H]1CN(Cc2ccc(-c3cccnc3N3CCC(Nc4ccc(F)cc4)CC3)s2)C[C@H](C)N1          pEC50             7.60
 4  Cc1cc(N(C)C(=O)c2ccc(Oc3ccc(F)cc3)nc2)ncc1CN1CCN[C@@H](C)C1          pEC50             8.70
 5  C[C@H]1CN(Cc2ccc(N(C)C(=O)c3ccc(Oc4ccc(F)cc4)nc3)cc2Cl)CCN1          pEC50             9.50
 6  C[C@H]1CN(Cc2ccc(N(C)C(=O)c3ccc(-c4ccccc4F)nc3)cc2)CCN1          pEC50             8.30
 7  C[C@H]1CN(Cc2ccc(N(C)C(=O)c3ccc(C(=O)c4ccc(C(F)(F)F)cc4)cc3)cc2)CCN1          pEC50             7.70
 8  COc1cc(CC(=O)N2CCC(Nc3cccc(F)c3)CC2)ccc1CN1CCN[C@@H](C)C1          pEC50             7.60
 9  CCN(C(=O)c1ccc(Oc2ccc(F)cc2)nc1)c1ccc(CN2CCN[C@@H](C)C2)cc1          pEC50             9.40
10  C[C@H]1CN(Cc2ccc(CC(=O)N3CCC(Nc4ccc(C(F)(F)F)cc4)CC3)cc2)CCN1          pEC50             8.00
11  C[C@@H]1CN(Cc2ccc(NS(=O)(=O)c3ccc(-c4ccc(F)cc4)nc3)cc2)C[C@H](C)N1          pEC50             6.80
12  C[C@@H]1CN(Cc2ccn(-c3cccnc3N3CCC(Oc4cccc(F)c4)CC3)n2)C[C@H](C)N1          pEC50             8.60
13  C[C@H]1CN(Cc2ccc(N(C)C(=O)C3CCN(Cc4ccc(F)cc4)CC3)cc2)CCN1          pEC50             8.10
14  C[C@H]1CN(Cc2ccc(N(C)C(=O)c3ccc(-c4ccc(F)cc4)cn3)cc2)CCN1          pEC50             8.10
15  C[C@H]1CN(Cc2ccc(N(C)C(=O)c3ccc(-c4cccc(C#N)c4)nc3)cc2)CCN1          pEC50             8.10
16  C[C@@H]1CN(Cc2ccc(CC(=O)N3CCC(Oc4cccc(F)c4)CC3)cc2)CCN1          pEC50             7.80
17  C[C@H]1CN(Cc2ccc(N(C)C(=O)c3ccc(-c4cccc(F)c4)cn3)cc2)CCN1          pEC50             8.10

====

- TARGET_OR_TEST_SYSTEM: Motilin receptor (Homo sapiens, UniProt O43193)
- MEASUREMENT_DESCRIPTION: SUPPLEMENTARY: Agonist activity at human recombinant motilin receptor expressed in CHO cells by calcium mobilization-based FLIPR assay. Same assay as CHEMBL942680
ENDPOINT_NAME: log10(EC50) (log10 of the value in nM)

>>> print(df.to_string())
                                test_smiles  endpoint_name  recorded_number
0  C[C@H]1CN(Cc2ccc(N(C)C(=O)c3ccc(Oc4ccc(F)cc4)nc3)nc2)CCN1    log10(EC50)             1.50
1  CCN(C(=O)c1ccc(-c2cccc(F)c2)nc1)c1ccc(CN2CCN[C@@H](C)C2)cc1    log10(EC50)            -0.10
2  C[C@H]1CN(Cc2ccc(CC(=O)N3CCC(Nc4ccc(C#N)cc4)CC3)cc2)CCN1    log10(EC50)             1.50
3  COc1cccc(-c2ccc(C(=O)N(C)c3ccc(CN4CCN[C@@H](C)C4)cc3)nc2)c1    log10(EC50)             0.90
4  C[C@H]1CN(Cc2ccc(N(C)C(=O)C3CCN(Cc4ccc(C#N)cc4)CC3)cc2)CCN1    log10(EC50)             1.80
5  C[C@H]1CN(Cc2ccc(CC(=O)N3CCC(Nc4cccc(F)c4)CC3)cc2Cl)CCN1    log10(EC50)             0.70
6  C[C@H]1CN(Cc2ccc(N(C)C(=O)C3CCN(Cc4cccc(F)c4)CC3)cc2)CCN1    log10(EC50)             0.70
7  Cc1cc(N(C)C(=O)c2ccc(Oc3ccc(F)cc3)nc2)ccc1CN1CCN[C@@H](C)C1    log10(EC50)            -0.60

====

Below, each entry is listed with its recorded pEC50.
- TARGET_OR_TEST_SYSTEM: Motilin receptor (Homo sapiens, UniProt O43193)
- MEASUREMENT_DESCRIPTION: SUPPLEMENTARY: Agonist activity at human recombinant motilin receptor expressed in CHO cells by calcium mobilization-based FLIPR assay. Same assay as CHEMBL942680
pEC50: −log10 of the molar value.
ENDPOINT_NAME: pEC50

In [3]: df
Out[3]:
                                   compound                     target_or_test_system  recorded_number
0  C[C@@H]1CN(Cc2ccc(-c3cccnc3S(=O)(=O)N3CCC(Nc4ccccc4F)CC3)cc2F)C[C@H](C)N1  Motilin receptor (Homo sapiens, UniProt O43193)             7.70
1  C[C@H]1CN(Cc2ccc(N(C)C(=O)C3CCN(Cc4cccc(C#N)c4)CC3)cc2)CCN1  Motilin receptor (Homo sapiens, UniProt O43193)             7.40
2  CC(C(=O)N1CCC(Nc2cccc(F)c2)CC1)c1ccc(CN2C[C@@H](C)N[C@@H](C)C2)cc1 (some centres undefined)  Motilin receptor (Homo sapiens, UniProt O43193)             7.80
3  C[C@H]1CN(Cc2ccc(N(C)C(=O)c3ccc(N4CCC(F)CC4)nc3)cc2)CCN1  Motilin receptor (Homo sapiens, UniProt O43193)             7.10
4  C[C@H]1CN(Cc2ccc(N(C)C(=O)c3ccc(-c4ccc(F)cc4)nc3)cc2)CCN1  Motilin receptor (Homo sapiens, UniProt O43193)             8.80
5  C[C@H]1CN(Cc2ccc(CC(=O)N3CCC(Oc4ccc(F)cc4)CC3)cc2)CCN1  Motilin receptor (Homo sapiens, UniProt O43193)             7.70
6  C[C@H]1CN(Cc2ccc(N(C)C(=O)c3ccc(-c4cccc(F)c4)nc3)cc2)CCN1  Motilin receptor (Homo sapiens, UniProt O43193)             8.90
7  COCCN(C(=O)c1ccc(Oc2ccc(F)cc2)nc1)c1ccc(CN2CCN[C@@H](C)C2)cc1  Motilin receptor (Homo sapiens, UniProt O43193)             7.80
8  Cc1nc(-c2cccc(F)c2)ccc1C(=O)N(C)c1ccc(CN2CCN[C@@H](C)C2)cc1  Motilin receptor (Homo sapiens, UniProt O43193)             9.20

====

- TARGET_OR_TEST_SYSTEM: Motilin receptor (Homo sapiens, UniProt O43193)
- MEASUREMENT_DESCRIPTION: SUPPLEMENTARY: Agonist activity at human recombinant motilin receptor expressed in CHO cells by calcium mobilization-based FLIPR assay. Same assay as CHEMBL942680
pEC50: −log10 of the molar value.
ENDPOINT_NAME: pEC50

>>> print(df.to_string())
                                test_smiles  recorded_number
0  Cc1nc(-c2ccc(F)cc2)ncc1C(=O)N(C)c1ccc(CN2CCN[C@@H](C)C2)cc1             8.80
1  COCCN(C(=O)c1ccc(-c2cccc(F)c2)nc1)c1ccc(CN2CCN[C@@H](C)C2)cc1             7.80
2  C[C@H]1CN(Cc2ccc(N(C)C(=O)c3ccc(Oc4cccc(F)c4)cn3)cc2)CCN1             9.00
3  C[C@@H]1CN(Cc2ccn(-c3cccnc3N3CCC(Oc4ccc(F)cc4)CC3)n2)C[C@H](C)N1             8.90
4  C[C@H]1CN(Cc2ccc(N(C)C(=O)c3ccc(-c4cccc(F)c4)nc3)cc2F)CCN1             8.90
5  C[C@@H]1CN(Cc2ccc(N(C)C(=O)c3ccc(-c4ccc(F)cc4)nc3)cc2)C[C@H](C)N1             8.70
